Molecular target: MAP4K4 (h) (Homo sapiens (Human), UniProt O95819)
Sequence (O95819 whole entry): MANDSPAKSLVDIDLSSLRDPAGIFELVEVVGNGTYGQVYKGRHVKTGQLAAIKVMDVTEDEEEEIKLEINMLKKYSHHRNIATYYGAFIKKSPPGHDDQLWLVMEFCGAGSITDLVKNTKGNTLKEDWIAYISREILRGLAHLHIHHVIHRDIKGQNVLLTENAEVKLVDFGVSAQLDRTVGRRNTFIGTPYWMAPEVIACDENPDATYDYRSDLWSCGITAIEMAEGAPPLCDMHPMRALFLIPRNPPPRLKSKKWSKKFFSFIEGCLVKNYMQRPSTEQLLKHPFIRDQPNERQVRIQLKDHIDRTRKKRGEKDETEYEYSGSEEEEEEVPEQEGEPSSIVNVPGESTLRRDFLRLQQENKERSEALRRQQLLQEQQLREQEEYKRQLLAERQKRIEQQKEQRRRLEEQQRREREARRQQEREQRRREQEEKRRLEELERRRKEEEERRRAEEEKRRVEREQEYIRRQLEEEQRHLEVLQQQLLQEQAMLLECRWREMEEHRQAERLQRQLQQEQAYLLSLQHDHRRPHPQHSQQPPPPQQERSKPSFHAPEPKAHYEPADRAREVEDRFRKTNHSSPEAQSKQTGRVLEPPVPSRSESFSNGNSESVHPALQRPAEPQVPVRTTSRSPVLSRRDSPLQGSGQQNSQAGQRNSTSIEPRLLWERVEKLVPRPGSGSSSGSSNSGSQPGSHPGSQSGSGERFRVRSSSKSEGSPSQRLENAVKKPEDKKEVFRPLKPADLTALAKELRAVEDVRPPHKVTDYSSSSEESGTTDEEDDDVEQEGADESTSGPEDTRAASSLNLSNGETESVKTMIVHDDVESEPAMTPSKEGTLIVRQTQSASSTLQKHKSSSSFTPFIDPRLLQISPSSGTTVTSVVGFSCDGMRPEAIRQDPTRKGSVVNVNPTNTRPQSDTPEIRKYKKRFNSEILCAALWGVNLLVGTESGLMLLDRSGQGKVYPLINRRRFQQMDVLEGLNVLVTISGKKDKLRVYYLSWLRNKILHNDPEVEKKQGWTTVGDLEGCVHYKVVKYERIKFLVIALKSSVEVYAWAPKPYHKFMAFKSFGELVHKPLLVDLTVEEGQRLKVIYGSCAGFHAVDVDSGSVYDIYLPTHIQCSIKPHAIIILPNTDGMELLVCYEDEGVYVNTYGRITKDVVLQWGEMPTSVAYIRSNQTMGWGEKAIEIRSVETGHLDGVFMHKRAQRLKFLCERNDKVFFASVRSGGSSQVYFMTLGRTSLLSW

[
  {
    "COMPOUND": "O=C(Nc1ccc(-c2c(-c3ccc(F)cc3)ncn2C2CCCC2)o1)c1ccccc1F",
    "VALUE_UNITS": "nM",
    "READOUT_RELATION": "=",
    "IC50": 547
  },
  {
    "COMPOUND": "O=C(Nc1ccncc1F)c1ccc(-c2c(-c3ccc(F)cc3)ncn2CC2CCOC2)o1 (stereo not shown)",
    "VALUE_UNITS": "nM",
    "READOUT_RELATION": "=",
    "IC50": 161
  },
  {
    "COMPOUND": "COc1cccc(NC(=O)c2ccc(-c3c(-c4ccc(F)cc4)ncn3C3CCCCC3)o2)c1",
    "VALUE_UNITS": "nM",
    "READOUT_RELATION": "=",
    "IC50": 244
  },
  {
    "COMPOUND": "O=C(Nc1c(O)cncc1F)c1ccc(-c2c(-c3ccc(F)cc3)ncn2C2COCC2(F)F)o1 (stereo not shown)",
    "VALUE_UNITS": "nM",
    "READOUT_RELATION": ">",
    "IC50": 1000
  },
  {
    "COMPOUND": "O=C(Nc1ccccc1Br)c1ccc(-c2c(-c3ccc(F)cc3)ncn2C2CCCC2)o1",
    "VALUE_UNITS": "nM",
    "READOUT_RELATION": "=",
    "IC50": 15.2
  },
  {
    "COMPOUND": "O=C(Nc1ccc(Cl)cc1F)c1ccc(-c2c(-c3ccc(F)cc3)ncn2C2CCCCC2)o1",
    "VALUE_UNITS": "nM",
    "READOUT_RELATION": "=",
    "IC50": 70.3
  },
  {
    "COMPOUND": "O=C(Nc1ccccc1F)c1ccc(-c2c(-c3ccc(F)nc3)ncn2C2CCCC2)o1",
    "VALUE_UNITS": "nM",
    "READOUT_RELATION": "=",
    "IC50": 131
  },
  {
    "COMPOUND": "CCOC(=O)c1ccc(NC(=O)c2ccc(-c3c(-c4ccc(F)cc4)ncn3C3CCCC3)o2)cc1",
    "VALUE_UNITS": "nM",
    "READOUT_RELATION": "=",
    "IC50": 87.3
  },
  {
    "COMPOUND": "CC(=O)c1ccc(NC(=O)c2ccc(-c3c(-c4ccc(F)cc4)ncn3C3CCCC3)o2)cc1",
    "VALUE_UNITS": "nM",
    "READOUT_RELATION": "=",
    "IC50": 36.8
  },
  {
    "COMPOUND": "COc1ccccc1NC(=O)c1ccc(-c2c(-c3ccc(F)cc3)ncn2C2CCCC2)o1",
    "VALUE_UNITS": "nM",
    "READOUT_RELATION": "=",
    "IC50": 4.46
  },
  {
    "COMPOUND": "O=C(Nc1ccc(F)cc1)c1ccc(-c2c(-c3ccc(F)cc3)ncn2C2CCCC2)o1",
    "VALUE_UNITS": "nM",
    "READOUT_RELATION": "=",
    "IC50": 97.9
  },
  {
    "COMPOUND": "COc1ccccc1NC(=O)c1ccc(-c2c(-c3ccc(F)cc3)ncn2C2CCCCC2)o1",
    "VALUE_UNITS": "nM",
    "READOUT_RELATION": "=",
    "IC50": 22.2
  },
  {
    "COMPOUND": "Cc1cccc(NC(=O)c2ccc(-c3c(-c4ccc(F)cc4)ncn3C3CCCC3)o2)c1C",
    "VALUE_UNITS": "nM",
    "READOUT_RELATION": "=",
    "IC50": 129
  },
  {
    "COMPOUND": "Cc1ccc(NC(=O)c2ccc(-c3c(-c4ccc(F)cc4)ncn3C3CCCC3)o2)cc1",
    "VALUE_UNITS": "nM",
    "READOUT_RELATION": "=",
    "IC50": 51.6
  },
  {
    "COMPOUND": "O=C(Nc1ccncc1F)c1ccc(-c2c(-c3ccc(F)cc3)ncn2[C@@H]2CC[C@H](O)C2)o1 (racemic) [Compound A-63]",
    "VALUE_UNITS": "nM",
    "READOUT_RELATION": "=",
    "IC50": 4.72
  },
  {
    "COMPOUND": "Cc1ccccc1NC(=O)c1ccc(-c2c(-c3ccc(F)cc3)ncn2C2CCCCC2)o1",
    "VALUE_UNITS": "nM",
    "READOUT_RELATION": "=",
    "IC50": 320
  },
  {
    "COMPOUND": "O=C(Nc1ccccc1Cl)c1ccc(-c2c(-c3ccc(F)cc3)ncn2C2CCCCC2)o1",
    "VALUE_UNITS": "nM",
    "READOUT_RELATION": "=",
    "IC50": 43.4
  },
  {
    "COMPOUND": "CC(=O)Nc1ccc(NC(=O)c2ccc(-c3c(-c4ccc(F)cc4)ncn3C3CCCCC3)o2)cc1",
    "VALUE_UNITS": "nM",
    "READOUT_RELATION": "=",
    "IC50": 34.6
  },
  {
    "COMPOUND": "O=C(Nc1ccncc1F)c1ccc(-c2c(-c3ccc(F)cc3)ncn2[C@@H]2CCC[C@H]2O)o1 (racemic)",
    "VALUE_UNITS": "nM",
    "READOUT_RELATION": "=",
    "IC50": 532
  },
  {
    "COMPOUND": "CCOc1ccc(NC(=O)c2ccc(-c3c(-c4ccc(F)cc4)ncn3C3CCCC3)o2)cc1",
    "VALUE_UNITS": "nM",
    "READOUT_RELATION": "=",
    "IC50": 63.7
  },
  {
    "COMPOUND": "Cc1ccc(NC(=O)c2ccc(-c3c(-c4ccc(F)cc4)ncn3C3CCCCC3)o2)cc1C",
    "VALUE_UNITS": "nM",
    "READOUT_RELATION": "=",
    "IC50": 288
  },
  {
    "COMPOUND": "O=C(Nc1ccncc1F)c1ccc(-c2c(-c3ccc(F)cc3)ncn2C2COCC2F)o1 (stereo not shown)",
    "VALUE_UNITS": "nM",
    "READOUT_RELATION": "=",
    "IC50": 337
  },
  {
    "COMPOUND": "O=C(Nc1ccncn1)c1ccc(-c2c(-c3ccc(F)cc3)ncn2C2COCC2F)o1 (stereo not shown)",
    "VALUE_UNITS": "nM",
    "READOUT_RELATION": "=",
    "IC50": 301
  },
  {
    "COMPOUND": "O=C(Nc1ccncc1F)c1ccc(-c2c(-c3ccc(F)cc3)ncn2[C@@H]2CC[C@H](O)C2)o1 (racemic) [Compound A-62]",
    "VALUE_UNITS": "nM",
    "READOUT_RELATION": "=",
    "IC50": 64
  },
  {
    "COMPOUND": "CCc1cccc(NC(=O)c2ccc(-c3c(-c4ccc(F)cc4)ncn3C3CCCC3)o2)c1",
    "VALUE_UNITS": "nM",
    "READOUT_RELATION": ">",
    "IC50": 1000
  },
  {
    "COMPOUND": "Cc1ccc(NC(=O)c2ccc(-c3c(-c4ccc(F)cc4)ncn3C3CCCC3)o2)cc1F",
    "VALUE_UNITS": "nM",
    "READOUT_RELATION": "=",
    "IC50": 243
  },
  {
    "COMPOUND": "Cc1cccc(C)c1NC(=O)c1ccc(-c2c(-c3ccc(F)cc3)ncn2C2CCCC2)o1",
    "VALUE_UNITS": "nM",
    "READOUT_RELATION": ">",
    "IC50": 1000
  },
  {
    "COMPOUND": "Cc1ccc(NC(=O)c2ccc(-c3c(-c4ccc(F)cc4)ncn3C3CCCCC3)o2)c(Cl)c1",
    "VALUE_UNITS": "nM",
    "READOUT_RELATION": "=",
    "IC50": 71.7
  },
  {
    "COMPOUND": "COc1cccc(NC(=O)c2ccc(-c3c(-c4ccc(C)cc4)ncn3C3CCCCC3)o2)c1",
    "VALUE_UNITS": "nM",
    "READOUT_RELATION": ">",
    "IC50": 1000
  },
  {
    "COMPOUND": "Cc1cc(F)ccc1NC(=O)c1ccc(-c2c(-c3ccc(F)cc3)ncn2C2CCCC2)o1",
    "VALUE_UNITS": "nM",
    "READOUT_RELATION": "=",
    "IC50": 139
  },
  {
    "COMPOUND": "CCOC(=O)c1cccc(NC(=O)c2ccc(-c3c(-c4ccc(F)cc4)ncn3C3CCCC3)o2)c1",
    "VALUE_UNITS": "nM",
    "READOUT_RELATION": ">",
    "IC50": 1000
  }
]

Origin of values: patent US11739078B2
